Where do these numbers come from? They come from PubChem BioAssay (NCATS).

System: SC27B
EXPERIMENT DESCRIPTION: qHTS profiling for inhibitors of Plasmodium falciparum proliferation (AID 504749); note: nearly all actives have a fitted effect of over 60% in size
CONDITION INFO: P. falciparum in erythrocytes, SYBR Green DNA, 72 h; series mostly up to 28.7 µM
Inconclusive results are not listed. Active and inactive are the calls of the source. Calls come from the whole dose curve; as a rule, active = well fitted inhibition curve with a large enough effect; inconclusive = small, poorly fitted or top-dose-only effect; inactive = flat fitted curve, though single readings scatter.
Respond with a class label; see active, inactive

Per the records of this test, what outcome belongs to CC(CO)NC(=O)C1C=C2c3cccc4[nH]cc(c34)CC2N(C)C1 (stereo not given) ? inactive

Per the records of this test, what outcome belongs to CCC/C=C/C=C/C(=O)OC1/C(=C/C(=O)OC)CC2CC(C(C)O)OC(=O)CC(O)CC3CC(OC(C)=O)C(C)(C)C(O)(CC4C/C(=C/C(=O)OC)CC(/C=C\C(C)(C)C1(O)O2)O4)O3 (stereo not given) ? active

Per the records of this test, what outcome belongs to COc1ccc2c3c1O[C@H]1[C@@H](O)C=C[C@H]4C(C2)NCCC341 (stereo not given in full) ? inactive

Per the records of this test, what outcome belongs to COC(=O)C1C(OC(=O)c2ccccc2)CC2CCC1N2C (stereo not given) ? inactive

Per the records of this test, what outcome belongs to C#CCN1CC(=O)N(COC(=O)[C@@H]2[C@@H](C=C(C)C)C2(C)C)C1=O ? inactive

Per the records of this test, what outcome belongs to C=C1Nc2ccccc2C(=O)N1c1ccccc1C ? inactive

Per the records of this test, what outcome belongs to NC(Cc1ccc(Oc2cc(I)c(O)c(I)c2)c(I)c1)C(=O)O (stereo not given) ? inactive

Per the records of this test, what outcome belongs to CCOC(=O)c1cncn1[C@@H](C)c1ccccc1 ? inactive

###

EXPERIMENT DESCRIPTION: qHTS assay for cell viability of the p53RE-bla HCT-116 cell line (AID 743292); note: nearly all actives have a fitted effect of over 55% in size
CONDITION INFO: p53RE-bla HCT-116 viability, ATP luminescence, 16 h; series mostly up to 95 µM
Results filed as inconclusive are left out. Active and inactive are the calls of the source. Calls follow the shape of the dose curve; as a rule, active = well fitted cell-killing curve with a large enough effect; inconclusive = small, poorly fitted or top-dose-only effect, or effect the other way; inactive = flat fitted curve, though single readings scatter.
Respond with a class label; see label 1 (active), label 0 (inactive)

Known results for molecules:
CC(C)(C)[C@@H](O)/C(=C\c1ccc(Cl)cc1Cl)n1cncn1 | label 0
CCOP(=O)(OCC)SCSCC | label 0
CC(C)(C#N)N=NC(C)(C)C#N | label 0
CCSCCSP(=O)(OC)OC | label 0
N#CC(Cl)Cl | label 1

Per the records of this test, what outcome belongs to CCNc1nc(NC(C)(C)C)nc(SC)n1 ? label 0

Per the records of this test, what outcome belongs to O=C(O)C1(O)c2ccccc2-c2ccc(Cl)cc21 (configuration not stated) ? label 0

Per the records of this test, what outcome belongs to CCOP(=S)(OCC)SCC(=O)NC(C)C ? label 0

###

EXPERIMENT DESCRIPTION: qHTS assay for small molecule agonists of the antioxidant response element (ARE) signaling pathway measured by Nrf2-dependant transcriptional activity - cell viability counter screen (AID 720653); note: % is set by controls: 0 for no effect and ±100 for the full control effect
CONDITION INFO: ARE-bla HepG2 viability, CellTiter-Glo ATP luminescence, 16 h; hits give low values
Results filed as inconclusive are left out.
PROPERTY LABEL: max response (%)
Write the value in % as a bare number.

C#CCN1C(=O)COc2cc(F)c(N3C(=O)C4=C(CCCC4)C3=O)cc21 | -24.6
CCOc1nc(NC)nc(NC(=O)NS(=O)(=O)c2ccccc2C(=O)OC)n1 | 13.3
COC(=O)c1ccccc1S(=O)(=O)NC(=O)Nc1nc(C)nc(OC)n1 | 13.7
O=[N+]([O-])c1ccc2ccc3cccc4ccc1c2c34 | -9.82
O=C1c2ccccc2C(=O)C1C(=O)C(c1ccccc1)c1ccc(Cl)cc1 (centres undefined) | -33.5
Clc1ccc([C@@]2(Cn3cncn3)C[C@H](Br)CO2)c(Cl)c1 | -1.58
CN/C(=N/[N+](=O)[O-])NCC1CCOC1 (centres undefined) | -9.26
FC(F)C(F)(F)OCC(Cn1cncn1)c1ccc(Cl)cc1Cl (centres undefined) | 4.71
CN1COCN(Cc2cnc(Cl)s2)/C1=N\[N+](=O)[O-] | -21.4
CCCSP(=O)(OCC)Oc1ccc(Br)cc1Cl (centres undefined) | -7.9

Briefly, max response measured for CCOP(=O)(NC(C)C)Oc1ccc(S(C)=O)c(C)c1 (centres undefined) : 20.7

###

TESTED TARGET: Bile acid receptor (Homo sapiens)
EXPERIMENT DESCRIPTION: qHTS assay for small molecule agonists of farnesoid X receptor signaling (AID 588527);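 note: 0% = vehicle basal and 100% = reference agonist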
CONDITION INFO: HEK293T FXR-UAS-bla, beta-lactamase ratio, 16 h; hits give high values
Inconclusive results are not listed.
PROPERTY LABEL: activation (%)
Write the value in % as a bare number.

Nc1cccc([N+](=O)[O-])c1 | -0.749
C=CC(=O)OCCCCCC(C)C | 1.09

Hey, Bile acid receptor (Homo sapiens) data for CCN(CC)c1ccc(N)cc1 : activation came out at -0.874

Hey, Bile acid receptor (Homo sapiens) data for C=C(C)C(=O)OCC(C)C : activation came out at -0.219

Hey, Bile acid receptor (Homo sapiens) data for O=C(O)C(Oc1ccc(Cl)cc1)Oc1ccc(Cl)cc1 : activation came out at -1.96

Hey, Bile acid receptor (Homo sapiens) data for CN(C)Cc1cc(CN(C)C)c(O)c(CN(C)C)c1 : activation came out at -0.172

Hey, Bile acid receptor (Homo sapiens) data for c1ccc(SCCSc2ccccc2)cc1 : activation came out at -0.837

Hey, Bile acid receptor (Homo sapiens) data for CSC1=N[C@@](C)(c2ccccc2)C(=O)N1Nc1ccccc1 : activation came out at 1.54

Hey, Bile acid receptor (Homo sapiens) data for CO[Si](CCCNCCC[Si](OC)(OC)OC)(OC)OC : activation came out at 1.6

###

TESTED TARGET: Peroxisome proliferator-activated receptor alpha (Homo sapiens) (UniProt Q07869)
Sequence (Q07869 whole entry, looked up): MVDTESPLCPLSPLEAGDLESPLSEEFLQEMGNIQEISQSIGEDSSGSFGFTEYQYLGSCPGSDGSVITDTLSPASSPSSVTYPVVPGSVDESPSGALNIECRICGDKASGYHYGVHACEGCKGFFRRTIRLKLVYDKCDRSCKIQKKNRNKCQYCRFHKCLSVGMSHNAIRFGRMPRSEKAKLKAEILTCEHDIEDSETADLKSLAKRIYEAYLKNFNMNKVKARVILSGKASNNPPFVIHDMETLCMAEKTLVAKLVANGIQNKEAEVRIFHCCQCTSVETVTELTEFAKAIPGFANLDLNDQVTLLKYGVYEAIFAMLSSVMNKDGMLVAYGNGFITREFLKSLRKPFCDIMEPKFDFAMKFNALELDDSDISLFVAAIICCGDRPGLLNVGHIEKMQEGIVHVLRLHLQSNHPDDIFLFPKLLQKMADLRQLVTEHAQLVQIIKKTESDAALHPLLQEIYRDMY
EXPERIMENT DESCRIPTION: qHTS assay for small molecule agonists of the peroxisome proliferator-activated receptor alpha (PPARalpha) signaling pathway (AID 651778); note: % of control where 0% means no effect
CONDITION INFO: PathHunter PPARalpha complementation, chemiluminescence, 6 h; hits give high values
# maps each entry to its max response
Write the value in % as a bare number.

O=C(NC(=O)c1c(F)cccc1F)Nc1ccc(OC(F)(F)C(F)OC(F)(F)F)c(Cl)c1 (configuration not stated) | 0.139
COc1nc(C)nc(NC(=O)NS(=O)(=O)c2ccccc2CCC(F)(F)F)n1 | -1.05
CCOP(=O)(SC(C)CC)SC(C)CC (configuration not stated) | -1.1
CCOP(=O)(NC(C)C)Oc1ccc(S(C)=O)c(C)c1 (configuration not stated) | -2.3
CCC[CH2][Sn]([Cl])([CH2]CCC)[CH2]CCC | 2.3

Hey, Peroxisome proliferator-activated receptor alpha (Homo sapiens) (UniProt Q07869) data for Clc1ccc(C(c2ccc(Cl)cc2)C(Cl)Cl)cc1 : max response came out at 16.9

Hey, Peroxisome proliferator-activated receptor alpha (Homo sapiens) (UniProt Q07869) data for C[N+]1(C)CCCCC1 : max response came out at -0.937

Hey, Peroxisome proliferator-activated receptor alpha (Homo sapiens) (UniProt Q07869) data for CCC[CH2][Sn]([CH2]CCC)[CH2]CCC : max response came out at 1.41

Hey, Peroxisome proliferator-activated receptor alpha (Homo sapiens) (UniProt Q07869) data for CCOP(OCC)OCC : max response came out at -2.48

Hey, Peroxisome proliferator-activated receptor alpha (Homo sapiens) (UniProt Q07869) data for CCC(C)c1ccc(O)cc1 (configuration not stated) : max response came out at -0.201

Hey, Peroxisome proliferator-activated receptor alpha (Homo sapiens) (UniProt Q07869) data for C#CCN1C(=O)COc2cc(F)c(N3C(=O)C4=C(CCCC4)C3=O)cc21 : max response came out at -2.95

Hey, Peroxisome proliferator-activated receptor alpha (Homo sapiens) (UniProt Q07869) data for CC(Oc1ccc(Cl)cc1Cl)C(=O)O (configuration not stated) : max response came out at 0.174

###

TESTED TARGET: Peroxisome proliferator-activated receptor alpha (Homo sapiens)
EXPERIMENT DESCRIPTION: qHTS assay for small molecule agonists of the peroxisome proliferator-activated receptor alpha (PPARalpha) signaling pathway (AID 651778); note: % of control where 0% means no effect
CONDITION INFO: PathHunter PPARalpha complementation, chemiluminescence, 6 h; hits give high values
PROPERTY LABEL: max response (%)
Write the value in % as a bare number.

Cc1[nH]c(=O)n(C(C)(C)C)c(=O)c1Cl | -1.56
CCC(C)Nc1c([N+](=O)[O-])cc(C(C)(C)C)cc1[N+](=O)[O-] (configuration not stated) | 8.22
CCOP(=S)(OCC)SCSP(=S)(OCC)OCC | -1.9

Briefly, max response measured for COP(=O)(OC)Oc1nc(Cl)c(Cl)cc1Cl : -0.672

Briefly, max response measured for COCC(=O)N(c1c(C)cccc1C)N1CCOC1=O : 0.278

Briefly, max response measured for CC(C)C1(C)N=C(c2ncccc2C(=O)O)NC1=O (configuration not stated) : -1.4

Briefly, max response measured for O=C1C(Cl)=C(Cl)C(=O)c2ccccc21 : -10.7
